# tgt: recombinant human PKM2 (Homo sapiens, UniProt P14618)
# Construct: His (N)
# Sequence (P14618 whole entry): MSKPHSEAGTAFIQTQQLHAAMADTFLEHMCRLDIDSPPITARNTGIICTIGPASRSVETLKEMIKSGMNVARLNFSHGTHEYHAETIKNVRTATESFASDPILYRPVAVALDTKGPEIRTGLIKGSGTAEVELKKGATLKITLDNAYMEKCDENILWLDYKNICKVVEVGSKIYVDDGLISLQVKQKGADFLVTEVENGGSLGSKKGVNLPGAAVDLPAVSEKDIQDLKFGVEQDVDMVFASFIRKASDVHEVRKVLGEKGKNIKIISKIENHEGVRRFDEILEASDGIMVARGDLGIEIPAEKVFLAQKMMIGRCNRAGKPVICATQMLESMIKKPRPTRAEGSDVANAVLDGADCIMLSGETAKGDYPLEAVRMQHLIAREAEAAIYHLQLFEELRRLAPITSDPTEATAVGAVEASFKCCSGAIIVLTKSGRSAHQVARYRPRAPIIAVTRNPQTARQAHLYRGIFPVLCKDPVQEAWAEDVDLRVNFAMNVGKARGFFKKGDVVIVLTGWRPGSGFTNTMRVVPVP
# test-description: Human PKM2 activation assay (Kinase-Glo Plus luminescence, ATP generated)
# experimental-context: activation of N-terminal His-tagged hPKM2; 4-parameter logistic fit; * = repeat experiments
measurement-name: pEC50
Remember the convention: pEC50 equals -log10 of concentration in molar.

**Q:** So what's the measured pEC50 for this one? O=c1c2ccc(S(=O)(=O)c3cnn(C(F)F)c3)cc2cnn1Cc1cc[nH]n1 [Example 2]
**A:** 6.98

**Q:** So what's the measured pEC50 for this one? O=c1c2ccc(S(=O)(=O)c3cnn(CCO)c3)cc2cnn1Cc1ccc2c(n1)CCO2 [Example 3]
**A:** 7.30

**Q:** So what's the measured pEC50 for this one? Cc1[nH]nc(Cn2ncc3cc(S(=O)(=O)c4cc[nH]n4)ccc3c2=O)c1Cl [Example 6]
**A:** 7.37

**Q:** So what's the measured pEC50 for this one? O=c1c2ccc(S(=O)(=O)c3cn[nH]c3)cc2cnn1Cc1cc2n(n1)CCO2 [Example 4]
**A:** 7.29

**Q:** So what's the measured pEC50 for this one? COc1ccc(Cn2ncc3cc(S(=O)(=O)c4cn[nH]c4)ccc3c2=O)nc1 [Example 1]
**A:** 6.94

###

# tgt: recombinant human PKLR (Homo sapiens, UniProt P30613)
# Construct: His (N)
# Sequence (P30613 whole entry): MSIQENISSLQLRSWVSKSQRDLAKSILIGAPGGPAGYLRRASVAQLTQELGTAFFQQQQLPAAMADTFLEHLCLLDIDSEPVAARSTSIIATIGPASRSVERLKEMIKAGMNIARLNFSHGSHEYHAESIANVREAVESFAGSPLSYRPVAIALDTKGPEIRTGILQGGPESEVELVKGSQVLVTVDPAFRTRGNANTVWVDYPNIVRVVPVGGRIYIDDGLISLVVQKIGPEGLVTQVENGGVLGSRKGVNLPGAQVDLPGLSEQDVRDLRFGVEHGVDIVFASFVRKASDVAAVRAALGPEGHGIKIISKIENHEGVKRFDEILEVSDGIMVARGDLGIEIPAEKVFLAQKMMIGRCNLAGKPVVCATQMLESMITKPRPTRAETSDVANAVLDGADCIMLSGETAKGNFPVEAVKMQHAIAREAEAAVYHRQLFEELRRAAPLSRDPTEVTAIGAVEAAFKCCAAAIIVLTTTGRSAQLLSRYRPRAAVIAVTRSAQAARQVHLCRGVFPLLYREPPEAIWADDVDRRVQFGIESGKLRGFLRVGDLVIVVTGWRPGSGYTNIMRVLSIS
# test-description: Human PKLR activation assay (Kinase-Glo Plus luminescence, ATP generated)
# experimental-context: activation of N-terminal His-tagged hPKLR; 4-parameter logistic fit; * = repeat experiments
Listed below: EC50 values for each entry.
Numbers only; they are read as nM.

Worked cases, answers included:
>>> result("O=c1c2ccc(S(=O)(=O)c3cnn(CCO)c3)cc2cnn1Cc1ccc2c(n1)CCO2 [Example 3]")
6.6
>>> result("COc1ccc(Cn2ncc3cc(S(=O)(=O)c4cn[nH]c4)ccc3c2=O)nc1 [Example 1]")
16
>>> result("O=c1c2ccc(S(=O)(=O)c3cn[nH]c3)cc2cnn1Cc1cc2n(n1)CCO2 [Example 4]")
6.4

**Q:** So what's the measured EC50 for this one? O=c1c2ccc(S(=O)(=O)c3cnn(C(F)F)c3)cc2cnn1Cc1cc[nH]n1 [Example 2]
**A:** 33.1

###

# tgt: pyruvate kinase in human CD4+ T cell lysates (Homo sapiens, UniProt P14618)
# Construct: endogenous in cells
# Sequence (P14618 2-531 limits assumed): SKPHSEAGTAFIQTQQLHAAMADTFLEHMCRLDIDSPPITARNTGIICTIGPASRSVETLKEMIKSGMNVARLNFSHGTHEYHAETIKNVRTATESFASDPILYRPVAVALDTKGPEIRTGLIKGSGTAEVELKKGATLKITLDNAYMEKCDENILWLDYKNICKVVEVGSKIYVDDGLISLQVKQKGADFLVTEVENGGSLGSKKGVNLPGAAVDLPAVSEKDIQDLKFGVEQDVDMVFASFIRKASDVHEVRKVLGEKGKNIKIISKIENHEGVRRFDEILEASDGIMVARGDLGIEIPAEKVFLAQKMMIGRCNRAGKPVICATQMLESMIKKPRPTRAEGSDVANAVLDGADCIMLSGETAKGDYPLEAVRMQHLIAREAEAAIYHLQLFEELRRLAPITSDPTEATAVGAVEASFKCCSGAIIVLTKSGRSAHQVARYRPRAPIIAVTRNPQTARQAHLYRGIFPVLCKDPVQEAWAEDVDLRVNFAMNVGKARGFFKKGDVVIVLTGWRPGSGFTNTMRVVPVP
# test-description: CD4+ T cell pyruvate kinase assay (PK activity in lysates of compound-treated cells)
# experimental-context: primary human CD4+ T cells incubated with compound 20 minutes, washed, lysed; ΔAbsorbance OD570 nm
Listed below: pEC50 values for each entry.
Remember the convention: pEC50 equals -log10 of concentration in molar.

Worked cases, answers included:
>>> result("Cn1cc(S(=O)(=O)c2ccc3c(=O)n(Cc4cc5n(n4)CCO5)ncc3c2)cn1")
7.03
>>> result("O=c1c2ccc(S(=O)(=O)c3cnn(CCO)c3)cc2cnn1Cc1ccc2c(n1)CCO2")
7.15
>>> result("COc1ccc(Cn2ncc3cc(S(=O)(=O)c4cn[nH]c4)ccc3c2=O)nc1")
7.01
>>> result("O=c1c2ccc(S(=O)(=O)c3cn[nH]c3)cc2cnn1Cc1cc2n(n1)CCO2")
6.90
>>> result("O=c1c2ccc(S(=O)(=O)c3cnn(C(F)F)c3)cc2cnn1Cc1cc[nH]n1")
6.77

# next molecule below
**Q:** So what's the measured pEC50 for this one? "Cc1[nH]nc(Cn2ncc3cc(S(=O)(=O)c4cc[nH]n4)ccc3c2=O)c1Cl"
**A:** 7.03

###

Listed below: Emax values for each entry.
# tgt: recombinant human PKLR (Homo sapiens)
# Construct: His (N); purchased R&D Systems
# test-description: Human PKLR activation assay (Kinase-Glo Plus luminescence, ATP generated)
# Format: biochemical
# experimental-context: percentage activation normalised to DMSO (LOW) and 5 μM TEPP-46 (HIGH); * = repeat experiments; read-out: hPKLR Emax
Numbers only; they are read as %.

Worked cases, answers included:
>>> result("COc1ccc(Cn2ncc3cc(S(=O)(=O)c4cn[nH]c4)ccc3c2=O)nc1 [Example 1]")
119
>>> result("Cn1cc(S(=O)(=O)c2ccc3c(=O)n(Cc4cc5n(n4)CCO5)ncc3c2)cn1 [Example 5]")
121
>>> result("O=c1c2ccc(S(=O)(=O)c3cnn(C(F)F)c3)cc2cnn1Cc1cc[nH]n1 [Example 2]")
123

**Q:** Notebook: pull reported Emax for recombinant human PKLR (Homo sapiens), entry O=c1c2ccc(S(=O)(=O)c3cn[nH]c3)cc2cnn1Cc1cc2n(n1)CCO2 [Example 4]
**A:** 122

**Q:** Notebook: pull reported Emax for recombinant human PKLR (Homo sapiens), entry O=c1c2ccc(S(=O)(=O)c3cnn(CCO)c3)cc2cnn1Cc1ccc2c(n1)CCO2 [Example 3]
**A:** 118
